Source: patent US10760110B2

System: K. pneumoniae NVT1001 strains with carbapenemase plasmids
Assay: Etest MIC of β-lactams, OmpK35/36 loss, ΔramR and/or carbapenemase (Table 9)
Type: cell-based, Klebsiella pneumoniae
Settings: Klebsiella pneumoniae, OXA-48 on pACYC177; ΔramRΔ36 (ΔramRΔompK36 mutant)
Method: DNA fragments of the resistance genes along with their flanking regions were amplified from clinical plasmids via PCR with specific primer pairs. The resulting PCR fragments were digested and then cloned into the plasmid pACYC177 or pACYC184. The resulting plasmids were then transformed into K. pneumoniae strain NVT1001 via electroporation. […] The MICs of antibiotics were determined using the Etest (Biodisk AB, Sweden) according to the manufacturer's instructions. […]
measuredMetric: MIC

- compoundStructure: "CO/N=C(\\C(=O)N[C@@H]1C(=O)N2C(C(=O)O)=C(COC(N)=O)CS[C@H]12)c1ccco1"
  MIC: "> 256 µg/mL"
- compoundStructure: "C[C@@H](O)[C@H]1C(=O)N2C(C(=O)O)=C(S[C@@H]3CN[C@H](C(=O)Nc4cccc(C(=O)O)c4)C3)[C@H](C)[C@H]12"
  MIC: "> 32 µg/mL"

Moving on to another compound below.
Exercise: Name the recorded MIC for `C[C@@H](O)[C@H]1C(=O)N2C(C(=O)O)=C(S[C@@H]3CN[C@H](CNS(N)(=O)=O)C3)[C@H](C)[C@H]12` .
Solution: > 32 µg/mL

---

test system: K. pneumoniae NVT1001 strains with carbapenemase plasmids; experiment: Etest MIC of β-lactams, OmpK35/36 loss, ΔramR and/or carbapenemase (Table 9); type: cell-based, Klebsiella pneumoniae; conditions: Klebsiella pneumoniae, OXA-48 on pACYC177; ΔramRΔ35 (ΔramRΔompK35 mutant)
We begin with a simple list: items and their reported MIC.
Record the value in µg/mL, omitting the unit from your answer.

Record excerpt, results attached:
- molecule: "CO/N=C(\\C(=O)N[C@@H]1C(=O)N2C(C(=O)O)=C(COC(C)=O)CS[C@H]12)c1csc(N)n1 [Cefotaxime]"
  assaySystem: "K. pneumoniae NVT1001 strains with carbapenemase plasmids"
  MIC (µg/mL): 4
- molecule: "CO/N=C(\\C(=O)N[C@@H]1C(=O)N2C(C(=O)[O-])=C(C[N+]3(C)CCCC3)CS[C@H]12)c1csc(N)n1 [Cefepime]"
  assaySystem: "K. pneumoniae NVT1001 strains with carbapenemase plasmids"
  MIC (µg/mL): 1
- molecule: "C[C@@H](O)[C@H]1C(=O)N2C(C(=O)O)=C(S[C@@H]3CN[C@H](C(=O)N(C)C)C3)[C@H](C)[C@H]12 [Meropenem]"
  assaySystem: "K. pneumoniae NVT1001 strains with carbapenemase plasmids"
  MIC (µg/mL): 2

Now consider a different molecule.
Exercise: Param readout= MIC; system= K. pneumoniae NVT1001 strains with carbapenemase plasmids; entry= C[C@@H](O)[C@H]1C(=O)N2C(C(=O)O)=C(S[C@@H]3CN[C@H](C(=O)Nc4cccc(C(=O)O)c4)C3)[C@H](C)[C@H]12 [Ertapenem] ; returns value.
Solution: 8

---

test system: K. pneumoniae NVT1001 strains with ESBL or AmpC β-lactamase plasmids; test: Etest MIC of β-lactams, OmpK35/36 loss, ΔramR and/or extended-spectrum β-lactamase and AmpC β-lactamase (Table 8); type: cell-based, Klebsiella pneumoniae; settings: Klebsiella pneumoniae, CMY-2 on pACYC177; Δ35 (ΔompK35 mutant)
The entries below come with measured MIC values attached.

Reference set, count: 2
- compoundStructure: "C[C@@H](O)[C@H]1C(=O)N2C(C(=O)O)=C(S[C@@H]3CN[C@H](C(=O)Nc4cccc(C(=O)O)c4)C3)[C@H](C)[C@H]12"
  MIC: "1 µg/mL"
- compoundStructure: "CC(C)(O/N=C(\\C(=O)N[C@@H]1C(=O)N2C(C(=O)[O-])=C(C[n+]3ccccc3)CS[C@H]12)c1csc(N)n1)C(=O)O"
  MIC: "> 256 µg/mL"

Next, consider the following compound.
Exercise: Query for K. pneumoniae NVT1001 strains with ESBL or AmpC β-lactamase plasmids: what MIC does the record show for `C[C@@H](O)[C@H]1C(=O)N2C(C(=O)O)=C(S[C@@H]3CN[C@H](CNS(N)(=O)=O)C3)[C@H](C)[C@H]12` ?
Solution: 0.25 µg/mL

---

Reported MIC values follow for various molecules
system: K. pneumoniae NVT1001 gyrA/parC and gyrA/parC/ramR mutants and revertants; assay: Etest MIC of quinolones, gyrA/parC and gyrA/parC/ramR mutants and their revertants (Table 11); assay type: cell-based; settings: Klebsiella pneumoniae, S83L/D87N/S80I::I80S revertant; read-out: MIC
Just the number in µg/mL, nothing appended.

// known answers, use as guide
- molecule: "C[C@H]1COc2c(N3CCN(C)CC3)c(F)cc3c(=O)c(C(=O)O)cn1c23 [Levofloxacin, levofloxacin]"
  numericResult: 1
- molecule: "COc1c(N2C[C@@H]3CCCN[C@@H]3C2)c(F)cc2c(=O)c(C(=O)O)cn(C3CC3)c12 [Moxifloxacin, moxifloxacin]"
  numericResult: 1
- molecule: "CC1COc2c(N3CCN(C)CC3)c(F)cc3c(=O)c(C(=O)O)cn1c23 (centres unmarked) [Ofloxacin, ofloxacin]"
  numericResult: 2

Consider now this further molecule.
Exercise: Item under review: CCn1cc(C(=O)O)c(=O)c2cc(F)c(N3CCNCC3)cc21 [Norfloxacin, norfloxacin] . Reported MIC?
Solution: 2

---

Listing of entries alongside the reported MIC.
system: K. pneumoniae NVT1001 strains with ESBL or AmpC β-lactamase plasmids; test: Etest MIC of β-lactams, OmpK35/36 loss, ΔramR and/or extended-spectrum β-lactamase and AmpC β-lactamase (Table 8); assay type: cell-based, Klebsiella pneumoniae; conditions: Klebsiella pneumoniae, DHA-1-AmpR on pACYC177; Δ36 (ΔompK36 mutant)
# number only, unit µg/mL dropped from output

Exercise: Using the record for `C[C@@H](O)[C@H]1C(=O)N2C(C(=O)O)=C(SCCN=CN)C[C@H]12` , report its MIC.
Solution: 0.5

Exercise: And for `C[C@@H](O)[C@H]1C(=O)N2C(C(=O)O)=C(S[C@@H]3CN[C@H](C(=O)N(C)C)C3)[C@H](C)[C@H]12` ?
Solution: 0.25

Exercise: Another molecule to look at: `C[C@@H](O)[C@H]1C(=O)N2C(C(=O)O)=C(S[C@@H]3CN[C@H](C(=O)Nc4cccc(C(=O)O)c4)C3)[C@H](C)[C@H]12`
Solution: 1

Exercise: Same for `C[C@@H](O)[C@H]1C(=O)N2C(C(=O)O)=C(S[C@@H]3CN[C@H](CNS(N)(=O)=O)C3)[C@H](C)[C@H]12`
Solution: 0.25

Exercise: Then what about the molecule `CO/N=C(\C(=O)N[C@@H]1C(=O)N2C(C(=O)O)=C(COC(C)=O)CS[C@H]12)c1csc(N)n1` ?
Solution: 16

Exercise: Moving on to `C[C@H]1[C@H](NC(=O)/C(=N\OC(C)(C)C(=O)O)c2csc(N)n2)C(=O)N1S(=O)(=O)O`
Solution: 1

Exercise: Now consider `CCO/N=C(\C(=O)N[C@@H]1C(=O)N2C(C(=O)[O-])=C(Sc3nc(-c4cc[n+](C)cc4)cs3)CS[C@H]12)c1nsc(N)n1` .
Solution: 8

Exercise: Do the same for `CC(C)(O/N=C(\C(=O)N[C@@H]1C(=O)N2C(C(=O)[O-])=C(C[n+]3ccccc3)CS[C@H]12)c1csc(N)n1)C(=O)O` please
Solution: 32

---

system: K. pneumoniae NVT1001 and its GyrA/ParC and ΔramR mutants; experiment: Etest MIC of quinolones, GyrA/ParC mutations and AcrAB-TolC overexpression (ΔramR) (Table 10); type: cell-based; settings: Klebsiella pneumoniae, S83F/D87N mutant
measuredMetric: MIC (µg/mL)
Write the number in µg/mL without appending the unit.

Guide cases for MIC, answers given:
- compound: "COc1c(N2C[C@@H]3CCCN[C@@H]3C2)c(F)cc2c(=O)c(C(=O)O)cn(C3CC3)c12"
  assaySystem: "K. pneumoniae NVT1001 and its GyrA/ParC and ΔramR mutants"
  valueUnits: "µg/mL"
  numericResult: 0.5
- compound: "C[C@H]1COc2c(N3CCN(C)CC3)c(F)cc3c(=O)c(C(=O)O)cn1c23"
  assaySystem: "K. pneumoniae NVT1001 and its GyrA/ParC and ΔramR mutants"
  valueUnits: "µg/mL"
  numericResult: 0.5
- compound: "CCn1cc(C(=O)O)c(=O)c2cc(F)c(N3CCNCC3)cc21"
  assaySystem: "K. pneumoniae NVT1001 and its GyrA/ParC and ΔramR mutants"
  valueUnits: "µg/mL"
  numericResult: 2

Exercise: # input compound: CC1COc2c(N3CCN(C)CC3)c(F)cc3c(=O)c(C(=O)O)cn1c23 (centres unmarked) ; wanted: its MIC
Solution: 2

---

Readings of MIC for the listed compounds
test system: K. pneumoniae NVT1001 strains with ESBL or AmpC β-lactamase plasmids; test: Etest MIC of β-lactams, OmpK35/36 loss, ΔramR and/or extended-spectrum β-lactamase and AmpC β-lactamase (Table 8); assay type: cell-based, Klebsiella pneumoniae; conditions: Klebsiella pneumoniae, DHA-1-AmpR on pACYC177; ΔramRΔ35 (ΔramRΔompK35 mutant)
Reply with just the number (in µg/mL).

Here's what some known entries look like.
- compoundStructure: "CO/N=C(\\C(=O)N[C@@H]1C(=O)N2C(C(=O)O)=C(COC(C)=O)CS[C@H]12)c1csc(N)n1"
  assaySystem: "K. pneumoniae NVT1001 strains with ESBL or AmpC β-lactamase plasmids"
  measuredMetric: "MIC"
  numericResult: 16
- compoundStructure: "C[C@@H](O)[C@H]1C(=O)N2C(C(=O)O)=C(S[C@@H]3CN[C@H](C(=O)N(C)C)C3)[C@H](C)[C@H]12"
  assaySystem: "K. pneumoniae NVT1001 strains with ESBL or AmpC β-lactamase plasmids"
  measuredMetric: "MIC"
  numericResult: 0.25

Consider now this further compound.
Exercise: Name the reported MIC value associated with the compound `C[C@@H](O)[C@H]1C(=O)N2C(C(=O)O)=C(S[C@@H]3CN[C@H](CNS(N)(=O)=O)C3)[C@H](C)[C@H]12`
Solution: 0.125
